subject-of-test: Prostaglandin E2 receptor EP2 subtype (Homo sapiens)
experimental-protocol: EP2 receptor modulators, cAMP readout, primary screen, cell-based, HTRF cAMP, PGE2 stimulation (AID 940);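 further: rat C6 glioma line stably carrying human EP2 under a CMV promoter; the protocol text gives 20 µM as final concentration; 100% = response of wells given 1 µM PGE2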
condition-parameters: EP2-expressing cells, cAMP HTRF FRET, PGE2 co-stimulation; at 25 µM; active compounds read high
Screen size: about 260,000 compounds; about 2,200 (0.85%) were called active. This is one part of a sample in which actives are shown more often than they occur.
measured-metric: induction (%)
Number in %, nothing else.

Consider the worked cases shown below.
[[record]]
compound = "CCC(C)NC(=O)CSc1nc2cc3c(cc2cc1C#N)OCCO3 (stereo not drawn)"
result_unit = "%"
meas_value = 33.9

[[record]]
compound = "CS(=O)(=O)N1CCc2cc(C(=O)N3C4CCC3CC(c3ccc(F)cc3)C4)ccc21 (stereo not drawn)"
result_unit = "%"
meas_value = -36.1

[[record]]
compound = "CCCC(NC(=O)c1cnc(SC)nc1)c1cccs1 (stereo not drawn)"
result_unit = "%"
meas_value = -29.9

[[record]]
compound = "COc1cccc(NC(=O)C(C#N)Cc2cccnc2)c1 (stereo not drawn)"
result_unit = "%"
meas_value = 2.36

[[record]]
compound = "CCOc1ccc(/C=N/NC(=O)C(C)Sc2ccccn2)cc1OCC (stereo not drawn)"
result_unit = "%"
meas_value = 13.9


*Q* Name the recorded induction of the item CC1CCCC(C)N1C(=O)[C@H]1C[C@@H](c2cccs2)NS(=O)(=O)N1C (stereo partly drawn) in your answer.
*A* -34.9

*Q* Name the recorded induction of the item COC(=O)Cn1c(C)nc2ccccc2c1=O in your answer.
*A* 6.77

*Q* Name the recorded induction of the item CC(C)n1c(=O)oc2cc(S(=O)(=O)N3CCCC(C(N)=O)C3)ccc21 (stereo not drawn) in your answer.
*A* -51.2

*Q* Name the recorded induction of the item COc1ccc2[nH]cc(CCNC(=O)C3CCN(c4nc5ccccc5n4C)CC3)c2c1 in your answer.
*A* -102

*Q* Name the recorded induction of the item C=CCn1c(SC(C)C(=O)OC)nc2c1c(=O)[nH]c(=O)n2C (stereo not drawn) in your answer.
*A* -1.3

*Q* Name the recorded induction of the item CCCCCn1c(SCCC(C)C)nc2c1c(=O)[nH]c(=O)n2C in your answer.
*A* 69.2

*Q* Name the recorded induction of the item CCc1ccc2[nH]c(=O)c(CN(Cc3ccc(F)cc3)Cc3nnnn3C(C)(C)C)cc2c1 in your answer.
*A* 62.5

*Q* Name the recorded induction of the item CCC(c1nnnn1C(C)(C)C)N(Cc1ccccc1)Cc1cc2ccc(C)cc2[nH]c1=O (stereo not drawn) in your answer.
*A* 12.1

*Q* Name the recorded induction of the item Cc1ccc(/C=N/NC(=O)CSc2ccccn2)o1 in your answer.
*A* -4.32

*Q* Name the recorded induction of the item Cc1sc2ncnc(NCC(=O)O)c2c1C in your answer.
*A* 2.64

*Q* Name the recorded induction of the item CCOC(=O)c1sc2nc(C)nc(SCC(N)=O)c2c1C in your answer.
*A* 9.11

*Q* Name the recorded induction of the item CSc1ncnc2sc(C)c(C)c12 in your answer.
*A* 68.5

----------
compounds and their reported induction
subject-of-test: Prostaglandin E2 receptor EP2 subtype (Homo sapiens)
experimental-protocol: EP2 receptor modulators, cAMP readout, primary screen, cell-based, HTRF cAMP, PGE2 stimulation (AID 940);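 further: rat C6 glioma line stably carrying human EP2 under a CMV promoter; the protocol text gives 20 µM as final concentration; 100% = response of wells given 1 µM PGE2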
condition-parameters: EP2-expressing cells, cAMP HTRF FRET, PGE2 co-stimulation; at 25 µM; active compounds read high
The whole screen tested about 260,000 compounds, of which about 2,200 (0.85%) were called active. The sample as a whole holds a higher share of actives than the screen did.
Number in %, nothing else.

Consider the worked cases shown below.
[[record]]
compound = "CCn1c(C)nnc1SCC(=O)Nc1ccc(Br)cc1"
subject_of_test = "Prostaglandin E2 receptor EP2 subtype (Homo sapiens)"
measured_metric = "induction"
meas_value = -1.86

[[record]]
compound = "O=C(CCSc1nc(-c2ccc3c(c2)OCO3)cc(C(F)(F)F)n1)NCc1ccncc1"
subject_of_test = "Prostaglandin E2 receptor EP2 subtype (Homo sapiens)"
measured_metric = "induction"
meas_value = -33.7

[[record]]
compound = "O=C(Nc1cc(Cl)cc(Cl)c1)C1CCN(C(=O)c2cccs2)CC1"
subject_of_test = "Prostaglandin E2 receptor EP2 subtype (Homo sapiens)"
measured_metric = "induction"
meas_value = -118

[[record]]
compound = "CCCNC(=O)C1COc2ccccc2O1 (configuration not stated)"
subject_of_test = "Prostaglandin E2 receptor EP2 subtype (Homo sapiens)"
measured_metric = "induction"
meas_value = -4.2

[[record]]
compound = "CCCCOc1ccc(-c2nnc(-c3ccco3)o2)cc1"
subject_of_test = "Prostaglandin E2 receptor EP2 subtype (Homo sapiens)"
measured_metric = "induction"
meas_value = 66.9

[[record]]
compound = "O=C(Nc1ccccc1N1CCCCC1)c1cccc(F)c1"
subject_of_test = "Prostaglandin E2 receptor EP2 subtype (Homo sapiens)"
measured_metric = "induction"
meas_value = 66.7

[[record]]
compound = "Cn1c(C(=O)O)ccc1S(=O)(=O)N(Cc1ccccc1)Cc1ccccc1"
subject_of_test = "Prostaglandin E2 receptor EP2 subtype (Homo sapiens)"
measured_metric = "induction"
meas_value = 21.3

[[record]]
compound = "C=CCNC(=O)CN1CCC(c2ccccc2F)CC1"
subject_of_test = "Prostaglandin E2 receptor EP2 subtype (Homo sapiens)"
measured_metric = "induction"
meas_value = -47.4


Now consider the entry below.
*Q* Name the recorded induction of the item Cc1nc(S(=O)(=O)c2ccc(Cl)cc2)c(N2CCCCC2)o1 in your answer.
*A* -42.2

----------
subject-of-test: Prostaglandin E2 receptor EP2 subtype (Homo sapiens)
experimental-protocol: EP2 receptor modulators, cAMP readout, primary screen, cell-based, HTRF cAMP, PGE2 stimulation (AID 940);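 further: rat C6 glioma line stably carrying human EP2 under a CMV promoter; the protocol text gives 20 µM as final concentration; 100% = response of wells given 1 µM PGE2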
condition-parameters: EP2-expressing cells, cAMP HTRF FRET, PGE2 co-stimulation; at 25 µM; active compounds read high
About 2,200 (0.85%) of roughly 260,000 compounds were called active. The sample as a whole holds a higher share of actives than the screen did.
measured-metric: induction (%)
Number in %, nothing else.

Consider the worked cases shown below.
[[record]]
molecule = "COc1cccc(/C(O)=C2/C(=O)C(=O)N(CCN(C)C)C2c2ccco2)c1 (stereo not given)"
measured_metric = "induction"
result_unit = "%"
meas_value = 2.05

[[record]]
molecule = "CCOC(=O)c1c(-c2cccc(C)c2)csc1NC(=O)c1c(-c2ccccc2)noc1C"
measured_metric = "induction"
result_unit = "%"
meas_value = 34.1

[[record]]
molecule = "CC1CCN(c2nc3c(c(=O)[nH]2)CCN(Cc2cn(CC(=O)O)c4ccccc24)C3)CC1"
measured_metric = "induction"
result_unit = "%"
meas_value = -3.4

[[record]]
molecule = "CNC(=S)N(Cc1ccccc1)Cc1cc2cccc(C)c2[nH]c1=O"
measured_metric = "induction"
result_unit = "%"
meas_value = -48.1


Now consider the entry below.
*Q* Name the recorded induction of the item CCOC(=O)c1c(C2CC2)csc1NC(=O)CSCc1c(C)noc1C in your answer.
*A* 75.9

----------
subject-of-test: Prostaglandin E2 receptor EP2 subtype (Homo sapiens) (UniProt P43116)
Sequence (P43116 whole entry, looked up): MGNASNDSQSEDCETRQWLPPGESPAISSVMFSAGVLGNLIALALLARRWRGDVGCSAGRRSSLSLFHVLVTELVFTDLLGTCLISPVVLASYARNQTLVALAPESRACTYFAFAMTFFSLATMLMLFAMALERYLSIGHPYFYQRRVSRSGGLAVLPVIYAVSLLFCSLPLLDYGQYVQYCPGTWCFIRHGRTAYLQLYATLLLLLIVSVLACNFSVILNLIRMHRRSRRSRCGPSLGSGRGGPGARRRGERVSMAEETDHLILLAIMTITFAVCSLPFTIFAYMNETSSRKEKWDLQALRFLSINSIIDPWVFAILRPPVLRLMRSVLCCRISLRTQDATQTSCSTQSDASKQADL
experimental-protocol: EP2 receptor modulators, cAMP readout, primary screen, cell-based, HTRF cAMP, PGE2 stimulation (AID 940);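 further: rat C6 glioma line stably carrying human EP2 under a CMV promoter; the protocol text gives 20 µM as final concentration; 100% = response of wells given 1 µM PGE2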
condition-parameters: EP2-expressing cells, cAMP HTRF FRET, PGE2 co-stimulation; at 25 µM; active compounds read high
Screen size: about 260,000 compounds; about 2,200 (0.85%) were called active. This excerpt belongs to a sample that is enriched for actives.
measured-metric: induction (%)
Number in %, nothing else.

Consider the worked cases shown below.
[[record]]
compound = "Cc1ccc(CN(Cc2cc3c(C)ccc(C)c3[nH]c2=O)Cc2nnnn2C2CCCC2)cc1"
meas_value = 38.9

[[record]]
compound = "Cc1cc(C)c2[nH]c(=O)c(CN(Cc3ccco3)C(c3nnnn3C3CCCCC3)C(C)C)cc2c1 (stereo not given)"
meas_value = 25.3

[[record]]
compound = "Cc1ccc2[nH]c(=O)c(CN(CCc3ccccc3)Cc3nnnn3C3CCCCC3)cc2c1"
meas_value = 71.2

[[record]]
compound = "CCC(c1nnnn1C1CCCC1)N(Cc1cccs1)Cc1cc2cccc(C)c2[nH]c1=O (stereo not given)"
meas_value = 46.6

[[record]]
compound = "CCOc1ccc(/C=N/NC(N)=S)cc1"
meas_value = -0.15

[[record]]
compound = "COc1cccc(-c2ccc(NS(=O)(=O)c3ccc4c(c3)CCC(=O)N4)cc2)c1"
meas_value = -97.5

[[record]]
compound = "COc1ccccc1N1N=C(c2cccs2)CC1c1ccccc1 (stereo not given)"
meas_value = 38.4

[[record]]
compound = "Cc1cccc2cc(CN(Cc3ccc4c(c3)OCO4)Cc3nnnn3C3CCCC3)c(=O)[nH]c12"
meas_value = 42.4

[[record]]
compound = "Cc1ccc(C2(O)CCN(Cc3cccc(OCc4ccccn4)c3)CC2)cc1"
meas_value = -1.87


Now consider the entry below.
*Q* Name the recorded induction of the item COc1ccc(C2CC(c3cccs3)=NN2c2ccccc2)cc1 (stereo not given) in your answer.
*A* 21.6

src = PubChem BioAssay AID940
